// endpoint MIC / system Staphylococcus aureus 3074
State the answer as a number, implicitly in µg/mL.

Please review the following examples before continuing.
>  <query smiles>
CN[C@@H]1[C@@H](O[C@H]2O[C@H](C)[C@@H](N)[C@H](O)[C@H]2O)O[C@H]2C[C@@H](N)[C@@H](O[C@H]3[C@H](O)[C@@H](O)[C@H](N)C[C@@H]3N)O[C@@H]2[C@@H]1O

>  <MIC [µg/mL]>
1

$$$$
>  <query smiles>
CN[C@@H]1[C@@H](O[C@H]2O[C@H](COS(C)(=O)=O)[C@@H](N)[C@H](O)[C@H]2O)O[C@H]2C[C@@H](N)[C@@H](O[C@H]3[C@H](O)[C@@H](O)[C@H](N)C[C@@H]3N)O[C@@H]2[C@@H]1O

>  <MIC [µg/mL]>
4

$$$$

For the molecule `CN[C@@H]1[C@@H](O[C@H]2O[C@H](CCl)[C@@H](N)[C@H](O)[C@H]2O)O[C@H]2C[C@@H](N)[C@@H](O[C@H]3[C@H](O)[C@@H](O)[C@H](N)C[C@@H]3N)O[C@@H]2[C@@H]1O` , what MIC is on record? 1

Look up MIC: `CN[C@@H]1[C@@H](O[C@H]2O[C@H](CN)[C@@H](N)[C@H](O)[C@H]2O)O[C@H]2C[C@@H](N)[C@@H](O[C@H]3[C@H](O)[C@@H](O)[C@H](N)C[C@@H]3N)O[C@@H]2[C@@H]1O` 4

Can you look up the measured MIC of `CN[C@@H]1[C@@H](O[C@H]2O[C@H](COS(=O)(=O)c3ccc(C)cc3)[C@@H](N)[C@H](O)[C@H]2O)O[C@H]2C[C@@H](N)[C@@H](O[C@H]3[C@H](O)[C@@H](O)[C@H](N)C[C@@H]3N)O[C@@H]2[C@@H]1O` for me? 2
